Measurement Protocol: folding stability dG unfold (combined trypsin and chymotrypsin); higher = more stable
Reported folding stability dG unfold values for the following sequences.
State just the number; it will be interpreted in kcal/mol.

{"Residue Sequence": "SAGGSAPVTLETEFFGENGLLVRTEAVVDPATGEVTVRTETFPVITGPADNPDVVKKLLEEAGIDASAGGSA [r2_304_TrMRF]", "Unit Info": "kcal/mol", "folding stability dG unfold": 0.887}
{"Residue Sequence": "SAGFSIVEVEPDEDTYTITIEYTLPNGTVKTKDLPLKAKNPVLLEISENEITIYLPDTNEVVTLPVSLISAG [r14_947_JUSTAS]", "Unit Info": "kcal/mol", "folding stability dG unfold": 1.87}
{"Residue Sequence": "SAGGSAGGSAGGSAELLEVLEVTKTGSGYTVKVLERSPELGPSVRTESFPADDTSVLLLSAGGSAGGSAGGS [r4_253_JUSTAS]", "Unit Info": "kcal/mol", "folding stability dG unfold": -0.0527}
{"Residue Sequence": "SAGGSAGGSAGKKIKVKIEVVYTDEDGNKHKVEMEKEIELKPGDKITLPPEAITRVEILPSAGGSAGGSAGG [r11_664_TrROS_Hall]", "Unit Info": "kcal/mol", "folding stability dG unfold": 1.57}
{"Residue Sequence": "SAGGSAGGSMKYLVTFPEGGPVPLPDGTSVALAPGAVLELETEEEAEALKALNPGRPVVITPVSAGGSAGGS [r12_987_JUSTAS]", "Unit Info": "kcal/mol", "folding stability dG unfold": 1.47}

Notebook: SAGGSAGGSASSSTFPRRNYTVTITTDPSNGKKTVTVLNPATGEATTLTPEELEADPVLAEAVSAGGSAGGS [r12_817_JUSTAS] , folding stability dG unfold read as 1.51

Notebook: SAGGSAGGSAGGDSMSYDPKLVEEPVVEVFDGPVLVRVTEVTLPNGKKLTTTEELPPGLESAGGSAGGSAGG [r7_846_JUSTAS] , folding stability dG unfold read as 0.546

###

Measurement Protocol: folding stability dG unfold from trypsin proteolysis; higher = more stable
Reported folding stability dG unfold values for the following sequences.
Number first, unit second.

Use the examples below as a reference point.
{"Residue Sequence": "SAGGSMKVKIEVEKTPKGYKVRITVEKDGKTYEFEFPEDMSLEEVLEKLKKELEKEGVEIEKIEIVSAGGSA [r2_497_TrROS_Hall]", "Observed Value": "3.15 kcal/mol"}
{"Residue Sequence": "SAGMTALFTDSSGKEVTFSHPNLELTVDPETGVVSAYEPESNLKVEVKVAPDKVTVTVYSGSSSKEIPLSAG [r5_786_JUSTAS]", "Observed Value": "-0.226 kcal/mol"}
{"Residue Sequence": "SAGGSAGGSAMTPEELLKAAEELAKKLNLKVEIEVKKNENGELTITVKVYKNGKLVKEFEIKSAGGSAGGSA [r18_369_TrROS_Hall]", "Observed Value": "3.06 kcal/mol"}

Notebook: SAELIEALKKAGYRIKIEVEVTEVRVVRNEDGELKVEAKIKVKIEIEPLPPPPPPLSLEDLLDKNGKLVSAG [r14_569_TrROS_Hall] , folding stability dG unfold read as 3.26 kcal/mol

Notebook: SAGGSAGGSAGGMKVIKLPGLTVEIEPGYSPSEPVKITITDPKTGKVTEYEIKIPPEELPSAGGSAGGSAGG [r7_834_JUSTAS] , folding stability dG unfold read as 0.915 kcal/mol

Notebook: SAGGSAMTIEIEAPVPAGVEVDATALFVTPDGYLYLAEVRSVGPGWARITIPVYRFDDNLDDPDFLSAGGSA [r15_909_TrMRF] , folding stability dG unfold read as 2.04 kcal/mol

Notebook: SAGGSAGGSASSSTFPRRNYTVTITTDPSNGKKTVTVLNPATGEATTLTPEELEADPVLAEAVSAGGSAGGS [r12_817_JUSTAS] , folding stability dG unfold read as 1.05 kcal/mol
